system name: CRBN and Helios (IKZF2) (Homo sapiens, UniProt Q96SW2+Q9UKS7)
Construct: His (N); Strep (N)
Sequence (Q96SW2 whole entry): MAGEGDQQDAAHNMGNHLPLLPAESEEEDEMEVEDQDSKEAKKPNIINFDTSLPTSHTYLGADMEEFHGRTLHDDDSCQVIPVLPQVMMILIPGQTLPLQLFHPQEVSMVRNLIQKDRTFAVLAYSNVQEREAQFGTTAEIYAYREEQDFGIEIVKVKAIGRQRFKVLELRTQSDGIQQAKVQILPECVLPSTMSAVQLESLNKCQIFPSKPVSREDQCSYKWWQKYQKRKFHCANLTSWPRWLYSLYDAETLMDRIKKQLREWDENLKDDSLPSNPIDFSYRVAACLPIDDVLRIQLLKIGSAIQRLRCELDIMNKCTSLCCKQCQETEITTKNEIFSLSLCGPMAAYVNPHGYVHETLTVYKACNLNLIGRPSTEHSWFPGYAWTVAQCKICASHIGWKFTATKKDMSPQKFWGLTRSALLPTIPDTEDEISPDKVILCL
Sequence (Q9UKS7 whole entry): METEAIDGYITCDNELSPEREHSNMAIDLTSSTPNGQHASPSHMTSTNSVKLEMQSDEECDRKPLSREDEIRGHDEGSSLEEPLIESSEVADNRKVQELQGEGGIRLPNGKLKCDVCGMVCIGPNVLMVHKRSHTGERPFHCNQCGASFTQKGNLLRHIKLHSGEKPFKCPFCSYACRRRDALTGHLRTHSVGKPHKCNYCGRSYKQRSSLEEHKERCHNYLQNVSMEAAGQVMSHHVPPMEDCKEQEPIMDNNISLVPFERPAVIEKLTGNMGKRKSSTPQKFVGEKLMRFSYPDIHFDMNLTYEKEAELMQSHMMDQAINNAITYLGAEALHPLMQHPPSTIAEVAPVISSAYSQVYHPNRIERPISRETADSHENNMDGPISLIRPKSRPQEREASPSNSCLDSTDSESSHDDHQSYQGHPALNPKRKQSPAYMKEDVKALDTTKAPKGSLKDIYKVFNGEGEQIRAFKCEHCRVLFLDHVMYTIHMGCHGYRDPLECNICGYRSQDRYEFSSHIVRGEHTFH
measurement notes: TR-FRET dimerization assay (CRBN-IKZF2 ternary complex formation)
Format: binding
condition: compound concentration 6.6667E−06; n=1
Each entry below carries its recorded TR-FRET-IKZF2 (Normalized to CC-885).
The answer should be a number; do not append a unit.

Cc1ccc(NC(=O)CCc2cccc(NC3=CC(=O)N(C4CCC(=O)NC4=O)C3=O)c2)cc1Cl (stereo not shown) [Compound 53] | 1.574
Cc1ccc(NC(=O)Nc2cccc3c(NC4=CC(=O)N(C5CCC(=O)NC5=O)C4=O)cccc23)cc1Cl (stereo not shown) [Compound 124] | 0.130
Cc1ccc(CC(=O)NCc2cccc(NC3=CC(=O)N(C4CCC(=O)NC4=O)C3=O)c2)cc1C (stereo not shown) [Compound 60] | 0.945

Switching to the query record.
Problem: What does the record list as TR-FRET-IKZF2 (Normalized to CC-885) for Cc1ccc(NC(=O)Oc2cccc(NC3=CC(=O)N(C4CCC(=O)NC4=O)C3=O)c2)cc1Cl (stereo not shown) [Compound 51] ?
Result: 0.032
